- Assay procedure: ESF tissue distribution study in rats
- Format: in vivo, rat
- Condition: male, rat, kidney; AUC0–4h after oral administration of ESF (2.5 g/kg) in rats; read-out: AUC0–t Kidney
Measurement name: AUC(0-t)

1) C=C(C)[C@H](CC=C(C)C)Cc1c(O)cc(OC)c2c1O[C@H](c1ccc(O)cc1O)CC2=O [Kurarinone, kurarinone] :: 5.4 µM·h

###

- Assay procedure: ESF tissue distribution study in rats
- Assay type: in vivo, rat
- Condition: male, rat, systemic (body) plasma; AUC0–4h after oral administration of ESF (2.5 g/kg) in rats; read-out: AUC0–t Body Plasma
Measurement name: AUC(0-t)

1. C=C(C)[C@H](CC=C(C)C)Cc1c(O)cc(OC)c2c1O[C@H](c1ccc(O)cc1O)CC2=O :: 2.4 µM·h

###

- System: HL-7702 cells
- Assay procedure: Effect of kurarinone on triglyceride levels in HL-7702 cells
- Assay type: cell-based, human
- Condition: Homo sapiens, L02; HL 7702 cells exposed for 24 h; read-out: EC50, increase of triglyceride
Measurement name: EC50

1) C=C(C)[C@H](CC=C(C)C)Cc1c(O)cc(OC)c2c1O[C@H](c1ccc(O)cc1O)CC2=O [Kurarinone, kurarinone] :: 31.2 µM

###

- Assay procedure: ESF tissue distribution study in rats
- Type: in vivo, rat
- Condition: male, rat, bile; AUC0–4h after oral administration of ESF (2.5 g/kg) in rats; read-out: AUC0–t Biliary Secretion
Measurement name: AUC(0-t) (µM·h)

1) C=C(C)[C@H](CC=C(C)C)Cc1c(O)cc(OC)c2c1O[C@H](c1ccc(O)cc1O)CC2=O :: 0.8

###

- Assay procedure: ESF tissue distribution study in rats
- Format: in vivo, rat
- Condition: male, rat, small intestine; AUC0–4h after oral administration of ESF (2.5 g/kg) in rats; read-out: AUC0–t Intestine
Measurement name: AUC(0-t) (µM·h)

1. C=C(C)[C@H](CC=C(C)C)Cc1c(O)cc(OC)c2c1O[C@H](c1ccc(O)cc1O)CC2=O :: 21.4

###

- Assay procedure: ESF tissue distribution study in rats
- Type: in vivo, rat
- Condition: male, rat, heart; AUC0–4h after oral administration of ESF (2.5 g/kg) in rats; read-out: AUC0–t Heart
Measurement name: AUC(0-t) (µM·h)

1) C=C(C)[C@H](CC=C(C)C)Cc1c(O)cc(OC)c2c1O[C@H](c1ccc(O)cc1O)CC2=O [Kurarinone, kurarinone] :: 4.7
